target: CYP2C19 (Homo sapiens, UniProt P33261); experiment: Time dependent inhibition of CYP2C19
Sequence (P33261 whole entry): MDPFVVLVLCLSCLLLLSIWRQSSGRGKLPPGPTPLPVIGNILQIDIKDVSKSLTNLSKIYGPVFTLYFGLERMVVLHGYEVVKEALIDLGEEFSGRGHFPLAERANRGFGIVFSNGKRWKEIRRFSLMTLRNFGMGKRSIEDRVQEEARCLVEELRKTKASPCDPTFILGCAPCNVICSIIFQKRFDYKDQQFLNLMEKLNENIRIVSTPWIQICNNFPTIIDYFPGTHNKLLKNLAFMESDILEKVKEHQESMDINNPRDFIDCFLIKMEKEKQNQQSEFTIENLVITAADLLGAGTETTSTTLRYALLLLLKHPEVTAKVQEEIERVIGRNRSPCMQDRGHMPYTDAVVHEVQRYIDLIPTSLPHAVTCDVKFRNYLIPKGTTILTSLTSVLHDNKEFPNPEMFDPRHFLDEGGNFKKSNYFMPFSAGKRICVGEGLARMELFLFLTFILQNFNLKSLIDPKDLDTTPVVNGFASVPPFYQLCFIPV
MEASURED_ATTRIBUTE: kinact

Exam item: Look up and state reported kinact for COC(=O)[C@H](c1ccccc1Cl)N1CCc2sccc2C1 [CLOPIDOGREL]
Marked response: 0.000917 s⁻¹

----------
biological target: Cytochrome P450 3A4 (Homo sapiens, UniProt P08684); experiment: Time dependent inhibition of CYP3A4 in human liver microsomes; format: ADME, Microsome
MEASURED_ATTRIBUTE: Ki (µM)
Quick reminder: number only, in µM, skip the unit.

Exam item: Please report the measured Ki for CN(c1ncccc1CNc1nc(Nc2ccc3c(c2)CC(=O)N3)ncc1C(F)(F)F)S(C)(=O)=O tested on Cytochrome P450 3A4 (Homo sapiens, UniProt P08684).
Marked response: 12

----------
target: UniProt:P10632; assay: Reversible inhibition of CYP2C8 in human liver microsomes; format: ADME, Microsome
MEASURED_ATTRIBUTE: IC50 (µM)
Supply the numeric figure in µM, leaving out any unit text.

Exam item: Hello, please tell me recorded IC50 for this one: Cc1ccc(C)c(OCCCC(C)(C)C(=O)O)c1
Marked response: 95

----------
experiment: Half life in human; assay type: ADME, organism-based; conditions: in vivo
MEASURED_ATTRIBUTE: half-life

Exam item: Please list half-life recorded for the molecule CCc1nn(CCCN2CCN(c3cccc(Cl)c3)CC2)c(=O)n1CCOc1ccccc1 [NEFAZODONE]
Marked response: 1 h

----------
biological target: CYP2C8 (Homo sapiens); test: Time dependent inhibition of CYP2C8 in human liver microsomes; format: ADME, Microsome; settings: human, liver microsomes
Sequence (P10632 whole entry): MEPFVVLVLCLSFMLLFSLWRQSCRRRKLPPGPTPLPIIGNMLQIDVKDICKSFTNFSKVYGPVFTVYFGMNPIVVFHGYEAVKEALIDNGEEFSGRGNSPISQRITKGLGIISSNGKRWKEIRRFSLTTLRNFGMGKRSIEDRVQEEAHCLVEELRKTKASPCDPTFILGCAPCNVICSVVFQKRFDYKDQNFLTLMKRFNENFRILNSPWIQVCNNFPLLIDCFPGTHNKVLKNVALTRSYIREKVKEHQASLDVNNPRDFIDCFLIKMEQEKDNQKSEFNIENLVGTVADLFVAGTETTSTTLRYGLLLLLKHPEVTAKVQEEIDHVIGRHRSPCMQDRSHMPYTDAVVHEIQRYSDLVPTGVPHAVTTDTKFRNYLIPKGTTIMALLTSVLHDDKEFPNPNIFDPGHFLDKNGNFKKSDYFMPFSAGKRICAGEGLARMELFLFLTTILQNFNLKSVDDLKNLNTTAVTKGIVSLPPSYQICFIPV
MEASURED_ATTRIBUTE: kinact

Exam item: Consider the molecule Cc1ccc(C)c(OCCCC(C)(C)C(=O)O[C@@H]2O[C@H](C(=O)O)[C@@H](O)[C@H](O)[C@H]2O)c1 and give its recorded kinact.
Marked response: 0.0035 s⁻¹

----------
target: CYP3A4 (Homo sapiens, UniProt P08684); test: Inhibition of CYP3A4-mediated testosterone 6 beta hydroxylation in human liver microsome by Dixon plot analysis; format: ADME; settings: liver microsomes, probe testosterone (6 beta-hydroxylation)
Sequence (P08684 whole entry): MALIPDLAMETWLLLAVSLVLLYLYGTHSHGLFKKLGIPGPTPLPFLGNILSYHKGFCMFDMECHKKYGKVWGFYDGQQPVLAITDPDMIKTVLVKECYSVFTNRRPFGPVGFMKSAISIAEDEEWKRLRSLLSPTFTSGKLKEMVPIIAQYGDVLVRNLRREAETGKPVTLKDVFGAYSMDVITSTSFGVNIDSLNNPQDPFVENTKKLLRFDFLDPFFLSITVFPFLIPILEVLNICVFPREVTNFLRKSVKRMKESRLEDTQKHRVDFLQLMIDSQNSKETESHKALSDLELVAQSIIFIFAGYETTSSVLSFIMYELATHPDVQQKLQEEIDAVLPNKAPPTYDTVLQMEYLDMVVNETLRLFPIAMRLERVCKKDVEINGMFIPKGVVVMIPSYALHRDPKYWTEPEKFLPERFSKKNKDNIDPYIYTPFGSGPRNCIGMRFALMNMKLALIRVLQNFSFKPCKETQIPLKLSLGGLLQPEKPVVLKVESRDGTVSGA
MEASURED_ATTRIBUTE: kinact (s⁻¹)
Field format: number, assumed s⁻¹, no unit text.

Exam item: Identify measured kinact obtained with CYP3A4 (Homo sapiens, UniProt P08684) for CC(C)CN(C[C@@H](O)[C@H](Cc1ccccc1)NC(=O)O[C@H]1CCOC1)S(=O)(=O)c1ccc(N)cc1 .
Marked response: 0.00983

----------
target: Cytochrome P450 3A4 (Homo sapiens, UniProt P08684); test: Time dependent inhibition of CYP3A4; type: ADME
MEASURED_ATTRIBUTE: Ki (µM)
# output: bare number, implied unit µM

Exam item: For CC(C)(C)NC(=O)C1(C2CCCCC2)CCN(C(=O)[C@@H](Cc2ccc(Cl)cc2)NC(=O)[C@H]2CCc3ccccc3[C@H]2N)CC1 , write its Ki.
Marked response: 23

----------
test: Lipophilicity, log D of the compound; format: physicochemical; settings: octanol/water
MEASURED_ATTRIBUTE: logD
API note: the answer field is a bare number with no unit suffix.

Exam item: Indicate the recorded logD value for this compound: O=C1CCc2ccc(OCCCCN3CCN(c4cccc(Cl)c4Cl)CC3)cc2N1 [ARIPIPRAZOLE]
Marked response: 5.54

Exam item: Answer with the recorded logD of CCc1nn(CCCN2CCN(c3cccc(Cl)c3)CC2)c(=O)n1CCOc1ccccc1 [NEFAZODONE] only.
Marked response: 3.43

Next:
Exam item: Answer with the recorded logD for the compound listed here: O=c1n(CCCN2CCN(c3cccc(Cl)c3)CC2)nc2ccccn12 [TRAZODONE]
Marked response: 1.58

----------
target: CYP3A4 (Homo sapiens); experiment: Time dependent inhibition of CYP3A4 in human liver microsomes; type: ADME, Microsome; conditions: human, liver microsomes
MEASURED_ATTRIBUTE: kinact (s⁻¹)
Give a bare numeral; the unit s⁻¹ is implied.

Exam item: Give kinact for the following molecule: CN(c1ncccc1CNc1nc(Nc2ccc3c(c2)CC(=O)N3)ncc1C(F)(F)F)S(C)(=O)=O
Marked response: 0.00383

----------
target: Cytochrome P450 2C8 (Homo sapiens); assay: Time dependent inhibition of CYP2C8 in human liver microsomes
MEASURED_ATTRIBUTE: Ki (µM)
Express it in µM; write the number only.

Exam item: Give the measured Ki for Cc1ccc(C)c(OCCCC(C)(C)C(=O)O[C@@H]2O[C@H](C(=O)O)[C@@H](O)[C@H](O)[C@H]2O)c1
Marked response: 20

----------
molecular target: Cytochrome P450 2C8 (Homo sapiens, UniProt P10632); assay: Inhibition of CYP2C8; format: ADME
MEASURED_ATTRIBUTE: IC50 (µM)
Supply the numeric figure in µM, leaving out any unit text.

Exam item: Give the reported IC50 for this compound. Cc1ccc(C)c(OCCCC(C)(C)C(=O)O[C@@H]2O[C@H](C(=O)O)[C@@H](O)[C@H](O)[C@H]2O)c1
Marked response: 4.1

New cases:
Exam item: Please give the documented IC50 of Cc1ccc(C)c(OCCCC(C)(C)C(=O)O)c1
Marked response: 28

----------
biological target: Cytochrome P450 2C19 (Homo sapiens); assay: Time dependent inhibition of CYP2C19
Sequence (P33261 whole entry): as the sequence (P33261 whole entry) above
MEASURED_ATTRIBUTE: Ki
Please report the result as a number followed by the unit.

Exam item: State, in one line, measured Ki of COC(=O)[C@H](c1ccccc1Cl)N1CCc2sccc2C1 [CLOPIDOGREL]
Marked response: 14.3 µM

----------
molecular target: UniProtKB P08684; experiment: Inhibition of CYP3A4 in human liver microsomes in presence of NADPH; format: ADME, Microsome
MEASURED_ATTRIBUTE: pKi
Note on units: pKi is unitless, being -log10 of a concentration expressed in mol/L.

Exam item: Please look at this molecule and report its pKi: COc1cc(CC(=O)O)ccc1Oc1ccc2[nH]c(C)cc2c1NS(=O)(=O)c1ccc(Cl)cc1Cl
Marked response: 4.74

----------
target: Cytochrome P450 2C8 (Homo sapiens, UniProt P10632); test: Inhibition of CYP2C8 in human liver microsomes in presence of NADPH; assay type: ADME, Microsome
MEASURED_ATTRIBUTE: IC50 (µM)
Just the number please, in µM, no unit attached.

Exam item: Recall and state the measured IC50 for Cc1ccc(C)c(OCCCC(C)(C)C(=O)O[C@@H]2O[C@H](C(=O)O)[C@@H](O)[C@H](O)[C@H]2O)c1 .
Marked response: 1.8

----------
assay: Oral bioavailability in human; assay type: ADME, organism-based; conditions: in vivo
Listing of entries alongside the reported bioavailability.
The reply should contain only the number, in %.

Exam item: State its bioavailability for this compound: O=C1CCc2ccc(OCCCCN3CCN(c4cccc(Cl)c4Cl)CC3)cc2N1
Marked response: 87

Shift focus to the following entry.
Exam item: Please give the documented bioavailability of CCc1nn(CCCN2CCN(c3cccc(Cl)c3)CC2)c(=O)n1CCOc1ccccc1
Marked response: 20

----------
molecular target: CYP3A4 (Homo sapiens, UniProt P08684); assay: Time dependent inhibition of CYP3A4; format: ADME
MEASURED_ATTRIBUTE: kinact
Reply with the number and its unit after it.

Exam item: Quickly give me recorded kinact for CC(C)(C)NC(=O)C1(C2CCCCC2)CCN(C(=O)[C@@H](Cc2ccc(Cl)cc2)NC(=O)[C@H]2CCc3ccccc3[C@H]2N)CC1
Marked response: 0.00133 s⁻¹

----------
target: Cytochrome P450 3A4 (Homo sapiens, UniProt P08684); experiment: Time dependent inhibition of CYP3A4-mediated testosterone-6-beta hydroxylation in human liver microsome; format: ADME
MEASURED_ATTRIBUTE: pKi
Notebook: values listed as pKi are -log10 of the concentration (mol/L).

Exam item: # return recorded pKi for entry CC(C)CN(C[C@@H](O)[C@H](Cc1ccccc1)NC(=O)O[C@H]1CCOC1)S(=O)(=O)c1ccc(N)cc1
Marked response: 6.43
